molecular target: InsR (Homo sapiens, UniProt P06213)
Sequence (P06213 1023-1298 limits assumed, species assumed): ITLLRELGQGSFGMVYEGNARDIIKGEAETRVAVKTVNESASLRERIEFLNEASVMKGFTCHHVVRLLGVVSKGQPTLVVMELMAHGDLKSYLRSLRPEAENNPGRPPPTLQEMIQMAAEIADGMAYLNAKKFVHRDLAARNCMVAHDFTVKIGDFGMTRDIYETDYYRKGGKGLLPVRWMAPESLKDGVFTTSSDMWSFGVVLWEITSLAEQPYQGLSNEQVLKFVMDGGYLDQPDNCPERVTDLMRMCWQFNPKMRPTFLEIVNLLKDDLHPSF
Examples of compounds with documented IC50 follow.

Recorded results for 3 compounds are shown here.
Record Cc1c(Cl)cccc1OC[C@H](O)CNc1cc[nH]c(=O)c1-c1nc2cc3c(cc2[nH]1)C(=O)N(CC1CCN(CCO)CC1)C3=O [compound 119] : what is its IC50 with InsR (Homo sapiens, UniProt P06213)?
< 0.5 µM

Another compound to check: CN1CCC(N2C(=O)c3cc4nc(-c5c(NC[C@@H](O)COc6ccc(F)c(Cl)c6)ccnc5O)[nH]c4cc3C2=O)CC1 [compound 74]
0.5 to 5 µM

Same lookup for Cc1ccc(OC[C@H](O)CNc2cc[nH]c(=O)c2-c2nc3cc4c(c(C)c3[nH]2)CN(C2CCN(C)CC2)C4=O)c(C)c1 [compound 132] , please.
< 0.5 µM

Continuing:
Please state recorded IC50 (tested on InsR (Homo sapiens, UniProt P06213)) of Cc1cc(C)c(OC[C@H](O)CNc2cc[nH]c(=O)c2-c2nc3cc4c(cc3[nH]2)C(=O)N(C2CCN(C)CC2)C4=O)c(CS(C)(=O)=O)c1 [compound 84]
0.5 to 5 µM

Try this compound too: CN1CCC(N2C(=O)c3cc4nc(-c5c(NCC(O)COc6ccccc6)cc[nH]c5=O)[nH]c4cc3C2=O)CC1 (stereo not shown) [compound 23]
0.5 to 5 µM

Subsequent entry: COCCCN1C(=O)c2cc3nc(-c4c(NC[C@@H](O)COc5ccc(C)cc5C)cc[nH]c4=O)[nH]c3cc2C1=O [compound 109]
> 15 µM

Now the compound COc1cc(C#N)ccc1OC[C@H](O)CNc1ccnc(O)c1-c1nc2cc3c(cc2[nH]1)C(=O)N(C1CCN(C)CC1)C3=O [compound 90]
5 to 15 µM

Also, CN1CCC(N2C(=O)c3cc4nc(-c5c(NCC(O)COc6cccc(Cl)c6)cc[nH]c5=O)[nH]c4cc3C2=O)CC1 (stereo not shown) [compound 38] please.
0.5 to 5 µM

Ok, now Cc1c(Cl)cccc1OC[C@H](O)CNc1cc[nH]c(=O)c1-c1nc2cc3c(cc2[nH]1)C(=O)N(C1CCN(CCCO)CC1)C3=O [compound 135]
0.5 to 5 µM

----------
biological target: IGF1R tyrosine kinase (Homo sapiens); construct: 6×His- or GST-tagged kinase domain fragments of the corresponding RTKs expressed in baculovirus system; host or cells: baculovirus system; experiment: IGF1R tyrosine kinase assay (Kinase-Glo ATP depletion or PT66/PT100 AlphaScreen); conditions: biochemical tyrosine kinase assay
Sequence (P08069 999-1274 limits assumed): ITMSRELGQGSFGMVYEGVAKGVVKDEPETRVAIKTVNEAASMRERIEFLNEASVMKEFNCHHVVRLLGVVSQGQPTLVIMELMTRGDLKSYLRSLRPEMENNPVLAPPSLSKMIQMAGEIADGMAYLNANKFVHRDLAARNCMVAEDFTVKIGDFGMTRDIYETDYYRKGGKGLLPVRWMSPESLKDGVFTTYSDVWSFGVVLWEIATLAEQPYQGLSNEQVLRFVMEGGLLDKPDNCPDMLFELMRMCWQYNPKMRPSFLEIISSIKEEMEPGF
Below: a set of entries, each annotated with reported IC50.

These solved cases illustrate the format of a correct answer.
IC50 for CC(C)CNCC(O)CNc1ccnc(O)c1-c1nc2cc3c(cc2[nH]1)C(=O)N(C1CCN(C)CC1)C3=O (stereo not drawn) [compound 66] ?
> 15 µM

Please give the result for Cc1ccc(OCC(O)CNc2cc[nH]c(=O)c2-c2nc3cc4c(cc3[nH]2)C(=O)N(CC2CCN(CCO)CC2)C4=O)c(C)c1 (stereo not drawn) [compound 37] too.
> 15 µM

Continue with the next molecule.
Give the measured IC50 of Cc1ccc(OC[C@H](O)CNc2cc[nH]c(=O)c2-c2nc3c(C)c4c(cc3[nH]2)C(=O)N(C2CCN(C)CC2)C4)c(C)c1 [compound 139] .
< 0.5 µM

----------
The compounds listed here are annotated with their pIC50.
molecular target: InsR (Homo sapiens)
pIC50: −log10 of the molar value.

Illustrative cases are given below, each with its answer.
What pIC50 value was documented for this compound, Cc1c(Cl)cccc1OC[C@H](O)CNc1cc[nH]c(=O)c1-c1nc2c(C)c3c(cc2[nH]1)C(=O)N(C1CCN(C)CC1)C3=O [compound 121] ?
5.30 to 6.30

// same read-out, input: CN1CCC(N2C(=O)c3cc4nc(-c5c(NC[C@@H](O)COc6cccc(Cl)c6)ccnc5O)[nH]c4cc3C2=O)CC1 [compound 75]
5.30 to 6.30

Continue with the next compound.
Tell me the measured pIC50 of Cc1ccc(OC[C@H](O)CNc2cc[nH]c(=O)c2-c2nc3cc4c(cc3[nH]2)C(=O)N(C2CCN(C)CC2)C4=O)c(C)c1 [compound 59] , please.
> 6.30

----------
Let's go through some recorded IC50 values for InsR (Homo sapiens) together.

Would you mind telling me what IC50 value was observed for "CCN(CC)C(=O)c1ccc(OC[C@H](O)CNc2ccnc(O)c2-c2nc3cc4c(cc3[nH]2)C(=O)N(C2CCN(C)CC2)C4=O)c(OC)c1" ?
> 15000 nM

Lookup "CN1CCC(N2C(=O)c3cc4nc(-c5c(NC[C@@H](O)COc6ccc(F)cc6)cc[nH]c5=O)[nH]c4cc3C2=O)CC1"
500 to 5000 nM

Please find the next compound below.
Quick one: IC50 for "CN1CCC(N2Cc3cc4[nH]c(-c5c(NC[C@@H](O)COc6ccc(F)cc6Br)cc[nH]c5=O)nc4cc3C2=O)CC1" ?
< 500 nM

----------
target: IGF1 receptor (Homo sapiens); construct: MCF7 human breast cancer cells expressing IGF1 receptor; endogenous in cells; test: ELISA-based assay of IGF1 receptor autophosphorylation inhibition in cells; details: IGF1R phosphorylation inhibition in MCF7 cells
Sequence (P08069 741-1367 limits assumed): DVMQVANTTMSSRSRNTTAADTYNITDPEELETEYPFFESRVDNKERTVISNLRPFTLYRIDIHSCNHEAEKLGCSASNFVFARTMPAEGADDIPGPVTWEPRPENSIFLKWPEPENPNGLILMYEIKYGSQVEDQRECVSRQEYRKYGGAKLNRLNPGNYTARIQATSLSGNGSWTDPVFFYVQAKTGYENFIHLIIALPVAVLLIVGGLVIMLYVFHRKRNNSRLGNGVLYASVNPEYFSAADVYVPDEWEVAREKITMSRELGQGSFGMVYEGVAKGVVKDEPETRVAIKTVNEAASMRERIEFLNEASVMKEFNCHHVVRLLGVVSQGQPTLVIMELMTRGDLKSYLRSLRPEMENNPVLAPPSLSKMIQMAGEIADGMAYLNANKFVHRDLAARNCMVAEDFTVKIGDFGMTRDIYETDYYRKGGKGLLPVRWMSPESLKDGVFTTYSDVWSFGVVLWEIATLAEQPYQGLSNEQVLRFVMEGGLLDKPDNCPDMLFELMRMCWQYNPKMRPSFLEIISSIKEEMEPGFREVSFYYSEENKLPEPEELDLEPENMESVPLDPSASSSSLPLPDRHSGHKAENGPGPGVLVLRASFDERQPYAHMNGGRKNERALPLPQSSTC
Sequence (P08069 31-736 partner limits assumed): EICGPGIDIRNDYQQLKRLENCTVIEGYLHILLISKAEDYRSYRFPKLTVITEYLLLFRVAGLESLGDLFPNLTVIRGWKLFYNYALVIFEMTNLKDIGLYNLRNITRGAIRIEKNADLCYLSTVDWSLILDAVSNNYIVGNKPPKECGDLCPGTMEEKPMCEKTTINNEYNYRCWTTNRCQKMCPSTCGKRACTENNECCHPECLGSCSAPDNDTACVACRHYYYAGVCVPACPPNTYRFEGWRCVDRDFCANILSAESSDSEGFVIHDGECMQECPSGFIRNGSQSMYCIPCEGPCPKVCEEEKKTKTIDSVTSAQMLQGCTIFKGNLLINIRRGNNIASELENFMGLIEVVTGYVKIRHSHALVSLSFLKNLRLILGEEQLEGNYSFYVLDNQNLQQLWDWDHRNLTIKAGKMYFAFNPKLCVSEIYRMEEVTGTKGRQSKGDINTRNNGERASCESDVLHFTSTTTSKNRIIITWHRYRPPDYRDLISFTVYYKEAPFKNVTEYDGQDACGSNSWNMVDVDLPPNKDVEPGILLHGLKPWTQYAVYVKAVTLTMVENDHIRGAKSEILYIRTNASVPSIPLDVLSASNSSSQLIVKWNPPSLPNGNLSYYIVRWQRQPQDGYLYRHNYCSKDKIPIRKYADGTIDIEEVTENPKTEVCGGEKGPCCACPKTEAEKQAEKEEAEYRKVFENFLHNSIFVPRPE
pIC50: −log10 of the molar value.
Reported property: pIC50

Entry CN1CCC(N2C(=O)c3cc4nc(-c5c(NCC(O)COc6ccc(C(C)(C)C)cc6)cc[nH]c5=O)[nH]c4cc3C2=O)CC1 (stereo not shown) has what pIC50?
5.30 to 6.30

More entries:
// returns reported pIC50 for input "CN1CCC(N2C(=O)c3cc4nc(-c5c(N[C@H](CO)Cc6c[nH]cn6)cc[nH]c5=O)[nH]c4cc3C2=O)CC1"
< 4.82

Follow-up entry: Cc1cc(OCC(O)CNc2cc[nH]c(=O)c2-c2nc3cc4c(cc3[nH]2)C(=O)N(C2CCN(C)CC2)C4=O)ccc1Cl (stereo not shown)
< 4.82

----------
pIC50: −log10 of the molar value.
This document collects pIC50 values reported for InsR (Homo sapiens).

Form field: pIC50 recorded for CN1CCC(N2Cc3cc4nc(-c5c(NC[C@@H](O)COc6cccc(C(F)(F)F)c6Cl)cc[nH]c5=O)[nH]c4cc3C2=O)CC1 [compound 154] with InsR (Homo sapiens) (enter value)
> 6.30

Subsequent entry: COC[C@@H](C)N1C(=O)c2cc3nc(-c4c(NC[C@@H](O)c5cccc(Cl)c5)cc[nH]c4=O)[nH]c3cc2C1=O [compound 30]
< 4.82

Also check CN1CCN(CCN2C(=O)c3cc4nc(-c5c(NC[C@@H](O)c6cccc(Cl)c6)cc[nH]c5=O)[nH]c4cc3C2=O)CC1 [compound 20]
5.30 to 6.30

Follow-up entry: Cc1cc(OCC(O)CNc2cc[nH]c(=O)c2-c2nc3cc4c(cc3[nH]2)C(=O)N(C2CCN(C)CC2)C4=O)ccc1Cl (stereo not shown) [compound 10]
5.30 to 6.30

Ok, now O=C1c2cc3nc(-c4c(NC[C@@H](O)c5cccc(Cl)c5)cc[nH]c4=O)[nH]c3cc2C(=O)N1[C@H]1CN2CCC1CC2 [compound 34]
5.30 to 6.30

Others:
Please provide the recorded pIC50 for O=C1c2cc3nc(-c4c(NC[C@@H](O)c5cccc(Cl)c5)cc[nH]c4=O)[nH]c3cc2C(=O)N1CCCN1CCOCC1 [compound 12] , tested on InsR (Homo sapiens).
< 4.82

Can you check COc1ccc2c(c1)cc(C)n2C[C@H](O)CNc1ccnc(O)c1-c1nc2cc3c(cc2[nH]1)C(=O)N(C1CCN(C)CC1)C3=O [compound 100] next?
5.30 to 6.30

Also need COc1cc(C#N)ccc1OC[C@H](O)CNc1ccnc(O)c1-c1nc2cc3c(cc2[nH]1)C(=O)N(C1CCN(C)CC1)C3=O [compound 50] , thanks.
4.82 to 5.30

Lookup COc1cc(F)ccc1OC[C@@H](O)CNc1ccnc(O)c1-c1nc2cc3c(cc2[nH]1)C(=O)N(C1CCN(C)CC1)C3=O [compound 58]
5.30 to 6.30

Now the compound Cc1c(Cl)cccc1OC[C@H](O)CNc1cc[nH]c(=O)c1-c1nc2cc3c(cc2[nH]1)C(=O)N(C1CCN(C)CC1)C3=O [compound 94]
> 6.30

For CCc1cc2c(cc1OC[C@H](O)CNc1cc[nH]c(=O)c1-c1nc3cc4c(cc3[nH]1)C(=O)N(C1CCN(C)CC1)C4)OCO2 [compound 156] then?
> 6.30

How about CN1CCC(N2C(=O)c3cc4nc(-c5c(NC[C@@H](O)COc6ccc7c(c6)OCO7)ccnc5O)[nH]c4cc3C2=O)CC1 [compound 78] ?
5.30 to 6.30

Subsequent entry: COc1cc(C)ccc1OC[C@H](O)CNc1ccnc(O)c1-c1nc2cc3c(cc2[nH]1)C(=O)N(C1CCN(C)CC1)C3=O [compound 54]
5.30 to 6.30

All values here come from patent US8063225B2.
